# system tested: rat PGT (Rattus norvegicus (Rat))
# test description: [3H]PGE2 uptake inhibition in MDCK cells stably transfected with rat PGT (percent inhibition and IC50)
# Format: cell-based
# condition notes: 0.5 μM compound; inhibition of [3H]PGE2 uptake
value kind: Inh (% of Ctl) 0.5 μM

Record excerpt, results attached:
| compound | Inh (% of Ctl) 0.5 μM |
| --- | --- |
| CCCCCCNc1nc(Nc2ccc(O)cc2)nc(Nc2ccc(C(=O)NCc3ccccc3)cc2)n1 | 29.1 % of Ctl |
| O=C(NCc1ccc(F)cc1)c1ccc(Nc2nc(Nc3ccc(O)cc3)nc(Nc3ccc(C(=O)NCc4ccc(F)cc4)cc3)n2)cc1 | 12.9 % of Ctl |
| O=C(NCc1ccccc1)c1ccc(Nc2nc(NCCOCCNCc3ccccc3)nc(Nc3ccc(O)cc3)n2)cc1 | 22.0 % of Ctl |
| CNC(=O)c1ccc(Nc2nc(NCCOCCOCCNC(=O)c3ccccc3)nc(Nc3ccc(O)cc3)n2)cc1 | 10.6 % of Ctl |
| O=C(NCCOCCOCCNc1nc(Nc2ccc(O)cc2)nc(Nc2ccc(N3CCOCC3)cc2)n1)c1ccccc1 | 1.7 % of Ctl |
| O=C(NCCOCCOCCNc1nc(Nc2ccc(O)cc2)nc(Nc2ccc(C(=O)NCc3cccnc3)cc2)n1)c1ccccc1 | 13.4 % of Ctl |

(Q) Which Inh (% of Ctl) 0.5 μM value is on record for "O=C(NCCOCCOCCNc1nc(Nc2ccc(O)cc2)nc(Nc2ccc(C(=O)NCc3cc(F)ccc3F)cc2)n1)c1ccccc1" ?
(A) 52.3 % of Ctl

(Q) Which Inh (% of Ctl) 0.5 μM value is on record for O=C(NCCOCCOCCNc1nc(Nc2ccc(O)cc2)nc(Nc2ccc(C(=O)NCc3ccccc3)cc2)n1)c1ccccc1 [compound 83] ?
(A) 4.1 % of Ctl

----------
Measured Inh (% of Ctl) 5 μM, listed per entry for reference.
# system tested: rat PGT (Rattus norvegicus (Rat), UniProt Q00910)
# test description: [3H]PGE2 uptake inhibition in MDCK cells stably transfected with rat PGT (percent inhibition and IC50)
# Format: cell-based
# condition notes: 5 μM compound; inhibition of [3H]PGE2 uptake

(Q) Which Inh (% of Ctl) 5 μM value is on record for O=C(NCCOCCOCCNc1nc(Nc2ccc(O)cc2)nc(Nc2ccc(C(=O)OCc3ccccc3)cc2)n1)c1ccccc1 [compound 69] ?
(A) 83.2 % of Ctl

(Q) Which Inh (% of Ctl) 5 μM value is on record for O=C(NCCOCCOCCNc1nc(Nc2ccc(O)cc2)nc(Nc2ccc(C(=O)NCc3ccccc3-c3ccccc3)cc2)n1)c1ccccc1 [compound 86] ?
(A) 86.4 % of Ctl

(Q) Which Inh (% of Ctl) 5 μM value is on record for O=C(NCCOCCOCCNc1nc(Nc2ccc(O)cc2)nc(Nc2cccc(C(=O)NCc3ccccc3)c2)n1)c1ccccc1 [compound 78] ?
(A) 83.2 % of Ctl

----------
# system tested: rat PGT (Rattus norvegicus (Rat))
# test description: [3H]PGE2 uptake inhibition in MDCK cells stably transfected with rat PGT (percent inhibition and IC50)
# Assay type: cell-based
# condition notes: 10 μM compound; inhibition of [3H]PGE2 uptake
value kind: Inh (% of Ctl) 10 μM

Record excerpt, results attached:
| compound | value kind | test value |
| --- | --- | --- |
| O=C(NCCCCCCCNc1nc(Nc2ccccc2)nc(Nc2ccc(O)cc2)n1)c1ccccc1 | Inh (% of Ctl) 10 μM | 44.1 % of Ctl |
| O=C(NCCOCCNc1nc(Nc2ccccc2)nc(Nc2ccc(O)cc2)n1)c1ccccc1 | Inh (% of Ctl) 10 μM | 75.8 % of Ctl |
| O=C(NCCOCCOCCNc1nc(Nc2ccccc2)nc(Nc2ccc(O)cc2)n1)c1ccc(Br)cc1 | Inh (% of Ctl) 10 μM | 69.2 % of Ctl |
| O=C(NCCCCCNc1nc(Nc2ccccc2)nc(Nc2ccc(O)cc2)n1)c1ccccc1 | Inh (% of Ctl) 10 μM | 49.6 % of Ctl |

(Q) Which Inh (% of Ctl) 10 μM value is on record for "O=C(NCCOCCOCCNc1nc(Nc2ccccc2)nc(Nc2ccc(O)cc2)n1)c1ccncc1" ?
(A) 49.6 % of Ctl

(Q) Which Inh (% of Ctl) 10 μM value is on record for O=C(NCCOCCOCCNc1nc(Nc2ccccc2)nc(Nc2ccc3cn[nH]c3c2)n1)c1ccccc1 [compound 75] ?
(A) 12.5 % of Ctl

(Q) Which Inh (% of Ctl) 10 μM value is on record for "O=C(NCCOCCOCCNc1nc(Nc2ccccc2)nc(Nc2ccc(O)cc2)n1)c1cccc(F)c1" ?
(A) 81 % of Ctl

(Q) Which Inh (% of Ctl) 10 μM value is on record for "O=C(NCCOCCOCCNc1nc(Nc2ccccc2)nc(Nc2ccc(O)cc2)n1)Nc1ccccc1" ?
(A) 57.6 % of Ctl

(Q) Which Inh (% of Ctl) 10 μM value is on record for "COc1cccc(C(=O)NCCOCCOCCNc2nc(Nc3ccccc3)nc(Nc3ccc(O)cc3)n2)c1" ?
(A) 79.0 % of Ctl

----------
Measured Inh (% of Ctl) 5 μM, listed per entry for reference.
# system tested: rat PGT (Rattus norvegicus (Rat))
# test description: [3H]PGE2 uptake inhibition in MDCK cells stably transfected with rat PGT (percent inhibition and IC50)
# Type: cell-based
# condition notes: 5 μM compound; inhibition of [3H]PGE2 uptake

| chemical string | Inh (% of Ctl) 5 μM |
| --- | --- |
| COC(=O)c1ccc(Nc2nc(NCCOCCOCCNC(=O)c3ccccc3)nc(Nc3ccc(O)cc3)n2)cc1 | 55.6 % of Ctl |
| O=C(NCCOCCOCCNc1nc(Nc2ccc(O)cc2)nc(Nc2ccc(C(=O)NCc3ccc(Cl)cc3Cl)cc2)n1)c1ccccc1 | 86.0 % of Ctl |
| O=C(NCCOCCOCCNc1nc(Nc2ccc(C(=O)NCc3ccccc3)cc2)nc(Nc2ccc3[nH]ncc3c2)n1)c1ccccc1 | 77.2 % of Ctl |
| O=C(NCCOCCOCCNc1nc(Nc2ccc(O)cc2)nc(Nc2ccc(C(=O)NCc3cccnc3)cc2)n1)c1ccccc1 | 76.1 % of Ctl |
| Nc1ccc(Nc2nc(NCCOCCOCCNC(=O)c3ccccc3)nc(Nc3ccc(O)cc3)n2)cc1 | 27.7 % of Ctl |

(Q) Which Inh (% of Ctl) 5 μM value is on record for "O=C(NCCOCCOCCNc1nc(Nc2ccc(O)cc2)nc(Nc2ccc(C(=O)NCc3ccc(C(F)(F)F)cc3)cc2)n1)c1ccccc1" ?
(A) 92.4 % of Ctl

----------
Measured Inh (% of Ctl) 10 μM, listed per entry for reference.
# system tested: rat PGT (Rattus norvegicus (Rat))
# test description: [3H]PGE2 uptake inhibition in MDCK cells stably transfected with rat PGT (percent inhibition and IC50)
# Type: cell-based
# condition notes: 10 μM compound; inhibition of [3H]PGE2 uptake

Record excerpt, results attached:
| chemical string | Inh (% of Ctl) 10 μM |
| --- | --- |
| NCCOCCOCCNc1nc(Nc2ccccc2)nc(Nc2ccc(O)cc2)n1 | 12.9 % of Ctl |
| O=C(NCCOCCOCCNc1nc(Nc2ccccc2)nc(Nc2ccc(O)cc2)n1)c1cccnc1 | 54.6 % of Ctl |
| O=C(NCCCCCCNc1nc(Nc2ccccc2)nc(Nc2ccc(O)cc2)n1)c1ccccc1 | 50.1 % of Ctl |
| O=C(NCCOCCOCCNc1nc(Nc2ccccc2)nc(Nc2ccc(O)cc2)n1)c1cccs1 | 86.2 % of Ctl |
| COC(=O)CCCCCCNc1nc(Nc2ccccc2)nc(Nc2ccc(O)cc2)n1 | 15.1 % of Ctl |
| O=C(NCCOCCOCCNc1nc(Nc2ccccc2)nc(Nc2ccc3[nH]nnc3c2)n1)c1ccccc1 | 50.4 % of Ctl |

(Q) Which Inh (% of Ctl) 10 μM value is on record for "O=C(NCCOCCOCCNc1nc(Nc2ccccc2)nc(Nc2ccc(O)cc2)n1)c1ccccc1C(F)(F)F" ?
(A) 75.3 % of Ctl

(Q) Which Inh (% of Ctl) 10 μM value is on record for "CCCCCCNc1nc(Nc2ccccc2)nc(Nc2ccc(O)cc2)n1" ?
(A) 26.1 % of Ctl

(Q) Which Inh (% of Ctl) 10 μM value is on record for "O=C(O)COCCOCCNc1nc(Nc2ccccc2)nc(Nc2ccc(O)cc2)n1" ?
(A) 29.8 % of Ctl

(Q) Which Inh (% of Ctl) 10 μM value is on record for "O=C(NCCOCCOCCNc1nc(Nc2ccccc2)nc(Nc2ccc(-c3nnn[nH]3)cc2)n1)c1ccccc1" ?
(A) 52.2 % of Ctl

(Q) Which Inh (% of Ctl) 10 μM value is on record for "COC(=O)Cc1ccc(Nc2nc(NCCOCCOCCNC(=O)c3ccccc3)nc(Nc3ccccc3)n2)cc1" ?
(A) 34.5 % of Ctl

(Q) Which Inh (% of Ctl) 10 μM value is on record for "CC(=O)NCCOCCOCCNc1nc(Nc2ccccc2)nc(Nc2ccc(O)cc2)n1" ?
(A) 6.6 % of Ctl

(Q) Which Inh (% of Ctl) 10 μM value is on record for "COC(=O)COCCOCCNc1nc(Nc2ccccc2)nc(Nc2ccc(O)cc2)n1" ?
(A) 12.5 % of Ctl

(Q) Which Inh (% of Ctl) 10 μM value is on record for "COc1ccc(C(=O)NCCOCCOCCNc2nc(Nc3ccccc3)nc(Nc3ccc(O)cc3)n2)cc1" ?
(A) 71.0 % of Ctl

These measurements were taken from patent US8952150B2.
